System: SK-MEL-28 melanoma
Experiment: NCI-60 one-dose screen, 48 h (100 = growth as untreated, 0 = no growth, -100 = all killed)
Details: 10 µM unless noted
Description: Growth inhibition of the SK-MEL-28 human tumor cell line is measured as a screen for anti-cancer activity. Cells are grown in 96 well plates and exposed to the test compound for 48 hours. Compounds are tested at a single concentration, which is 10^-5 M for most compounds. The reported endpoint is percent growth (GI% or GIPRCNT), where numbers from 0 - 100% represent growth inhibition, and numbers from -100% - 0 represent cell death. For example, a value of 40 represents 60% growth inhibition. […]
About 83,000 compounds went through this panel and 20% of them were active in at least one assay; those are over-represented in the sample as a whole.
Property Measured: growth (%)
Numbers only, in %.

Previously resolved entries follow.
[[record]]
compound = "CSc1ccc(C(=O)Nc2ccc3nn(/C(C#N)=C/c4ccccn4)nc3c2)cc1"
property_measured = "growth"
result_number = -83.5

[[record]]
compound = "Cn1nc(C(F)(F)F)cc1-c1cc(Cl)c(COc2ccc(Cl)cc2)c(-c2ccc(Cl)c(C(F)(F)F)c2)c1O"
property_measured = "growth"
result_number = -48.8

[[record]]
compound = "NS(=O)(=O)c1ccc(-n2cc(-c3cccc(NC(=O)c4ccc(Cl)c(C(F)(F)F)c4)c3)nn2)cc1"
property_measured = "growth"
result_number = -14.5

[[record]]
compound = "COc1c(F)ccc(C(=O)Nc2ccc3nc(NC(=O)C4CCCN(S(=O)(=O)c5cccc(Cl)c5)C4)sc3c2)c1F (stereo not given)"
property_measured = "growth"
result_number = 92.1


I'm hoping you can list growth for every compound here, please.
1. COCOc1cc2oc(C(=O)N[C@@H](Cc3ccccc3)C(O)C(=O)NCc3ccccc3)c(C)c(=O)c2cc1OCOC (stereo not given in full)
2. Cc1ncsc1-c1ccc(CNC(=O)[C@@H]2C[C@@H](O)CN2C(=O)[C@@H](NC(=O)C2(F)CC2)C(C)(C)C)c(OCCOCCOCCOCCOc2nc(Nc3cc(S(C)(=O)=O)ccc3N[C@@H](c3cccc4c3OC(F)(F)O4)c3ncccc3Cl)nc(N3CCNCC3)n2)c1
3. CN1CCN(c2ccc3c(c2)nc(NNC(=O)c2cnccn2)c2cccn23)CC1
4. C#CCOc1cc(N(CC)CC)ccc1C(C(=O)NC(C)(C)C)N(C(=O)C1CCc2cc(F)ccc2O1)c1ccccc1Br (stereo not given)
5. Clc1cccc(N/N=C/c2c[nH]c3ccc(Br)cc23)n1

70.9
89.2
-15
64.8
49.1

I'm hoping you can list growth for every compound here, please.
1. COc1ccc(NC(=O)Nc2ccc(OCc3ccc(F)cc3)cc2)cc1
2. Cn1cc(-c2nc(N)nnc2-c2c[nH]c3ccc(Br)cc23)c2cccnc21
3. CCOC(=O)/C=C/c1cccc2c1C(=O)NC(C)(c1cc3cc(Cl)ccc3oc1=O)N2 (stereo not given)
4. N#Cc1c(-c2ccccc2Cl)cc(-c2ccc3ccccc3c2)[nH]c1=O
5. COc1cc(-c2ccc(/C=N/NC(=O)c3[nH]c4ccc(Br)cc4c3-c3ccccc3)o2)cc(OC)c1OC
6. NS(=O)(=O)c1ccc(N=Nc2c(O)n(CC(=O)Nc3ccccc3)c3ccccc23)cc1

[75.5, 59.9, 53.9, 67.9, 86.8, -2.1]
